System: MS2 coat protein
ASSAY_EXPLANATION: apparent KD of MS2 coat protein; designed switch direction (-1 OFF switch, 1 ON switch): -1; higher = weaker reporter binding
CONDITION_INFO: Eterna round: R95; input ligand: microRNA oligo, concentration not stated
RECORDED_METRIC: apparent KD of MS2 coat protein (nM)
Your answer should be a plain number; it is taken to be in nM.

// below: answered sequences
GUUAAGGUAGGAUAUACGAUAAUAUAGGGUAGAAUAUUAACACAUGAGGAUCACCCAUGUAGAAGGACCAAUUG [Mat - Exclusion 2 - Mod of my Tesla design - D51] (puzzle: Exclusion 2) : 21.1
GGUUGGCGAGGAUAUACAUGAGGAUCACCCAUGUGAGAGAAUAAAGUGAGGAAGAAAAGUAGAAGGCGCUGACA [Mat - Exclusion 3 - Mod of Salish D8] (puzzle: Exclusion 3) : 42.1

Proceed to the following item.
Asked: State its apparent KD of MS2 coat protein: UCUAGCUUUUUGCGUCAAGCAUUGAAGUCUGUGAUCGUAACAUGAGGAUCACCCAUGUAAGUUUUAUGUCGUCUUGU [JR_SV3TOV2_Sub098] (puzzle: Sensor v3, turn-off variant 2)
Given back: 41.4

###

Listing: apparent KD of MS2 coat protein of selected sequences
System: MS2 coat protein
ASSAY_EXPLANATION: apparent KD of MS2 coat protein; designed switch direction (-1 OFF switch, 1 ON switch): -1; higher = weaker reporter binding
CONDITION_INFO: input ligand: none
Note: unit nM is implicit; provide only the numeric part.

ACAUGAGGAUCACCCAUGUGACAAGAAUGGCUGACACAGAGAUAGGAUAUAGGUGCAUAUCUAACCUAGAAGGGUCAUGACUGG [Deportation 76 - Jieux - Exclusion NG 3] (Eterna round: R96, puzzle: Exclusion NG 3) : 26.5

Asked: Tell me its apparent KD of MS2 coat protein given CGCAAAAGGAAGGAUAUGCUAGACGAAAGUCUAGCAGAAGGUCCUACAUGAGGAUCACCCAUGUGUCCUAUGCG [Mat - Exclusion 6 - Eli Mod - D11] (Eterna round: R97, puzzle: Exclusion 6) as the entry.
Given back: 46.6

Asked: Return apparent KD of MS2 coat protein (reported value) for this sequence: AAUUAGCAAGCGAGAUCCCACAUGAGGAUCACCCAUGUGCUCGUCUUAUAAGGUACUGUGACAAAAGUCACGGUACC [Mat - Sensor, turn-off var - Eli Mod - D18] (Eterna round: R97, puzzle: Sensor, turn-off variant 1)
Given back: 18.1

Asked: Recall and state the measured apparent KD of MS2 coat protein for AUCGUGCAGCUUUGCUGUACGAGUACAUGAGGAUCACCCAUGUAGGAUAUGGUACGCUUUGCGUGCUAGAAGGAUAUGUGUUAG [EX ENG3 1.43] (Eterna round: R96, puzzle: Exclusion NG 3) .
Given back: 44.2

###

# reported apparent KD of K4 kissing-loop reporter; entries follow
Tested on: K4 kissing-loop RNA reporter;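 further: bound reporter read as fluorescence of individual clusters on recovered sequencing chips by microscopy, with normalized cluster intensities fitted with a binding model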
ASSAY_EXPLANATION: apparent KD of K4 kissing-loop reporter; higher = weaker reporter binding
CONDITION_INFO: Eterna round: R107; input ligand: FMN 200 uM
The reply should be a number in nM, with the unit left off.

Reference set, count: 5
GGUUGAAGCACCCGGAGUGAUGUUCCGGAUACCAGCAAACCAACUUGCCCUUGGCAGCCGUAUAGCGUCCGGUGGGCCGAGCAUA [Beisadi] : 101
ACAGUACCGGGAAGGAGCGUGAAUGAGAAUGGAUAUAGUGAUGUUAUGUAUACGAACGAAUCGCAGGUAGGUCGCCCGGAUCCCU [SSArgB.aD] : 563
AAGGUCACUACUACAGUGAUGUUGUGGGAGCAGGAUAUGCAGAAAUGCAGAAGGGCUCGCUCCAGGUGACCGAAUGAAACAUUCA [whbob_SS_FMNA__2th174] : 1500
UGGAUUAGGACGGCCGCCACUACGCUGGCAUGAGUGAUGUUCUAAGGCUUGUCAAAGAUCCAGAGUAGGACCGGGUCCAAUGACU [theeternabot_exclusion_KL_Trp_B_38] : 293
UUUAUGAGGUCGGCCGCCACUGGAUUUAUGUUUGUUUCGUCUGGAUCAAAGUGAUGUUUUGAGUCCAGGACCGGGACAUUUGUUA [whbob_Ex_Tryp_B_w40] : 85.3

// next entry
Asked: Check the records and state apparent KD of K4 kissing-loop reporter for GUCCCAGUGAUGUUGGUAGGCGGGCGGGAUACCAGCGAAGACUCACGCCCUUGGCAGCCCACAUAUCCCGCGUAGGGAUUAGCCC [Same State - Theophylline A (Freestyle 22)]
Given back: 652

###

Test system: MS2 coat protein
ASSAY_EXPLANATION: apparent KD of MS2 coat protein; higher = weaker reporter binding
CONDITION_INFO: Eterna round: R107; input ligand: theophylline 20 uM
RECORDED_METRIC: apparent KD of MS2 coat protein
Number first, unit second: that is the form wanted.

AACAUGAGGAUUGAUACCAGUCCAUGAGGAUCACAUGAGGAUCACCCAUGUGGAACAUGAGGCCCUUGGCAGCAGUACAACAUGA [Same State Theophylline B] : 17.2 nM
GACCUUGCGGGCGCCCGCAAGGUCGCGGAUACCAGCGAGGUCCAUCGCCCUUGGCAGCCGAACAUGAGGAUCACCCAUGUCGGUU [Same State - Theophylline A Attempt #5 (HarryS)] : 12.8 nM
AAAGUUGAUGAGUUGCGUUUGUGUUCCGAAGGAGCGAGAAUUAUCUCAGGUAGGUCGCGGAACAUGAGGAUCACCCAUGUAUAAA [XArg-A 19 NuV1&2 original #dotplot2>1] : 46.2 nM
UAUUAUCAGUCGGCCGCCACUGACACAUGAGGAUCACCCAUGUAAUUUGGGUUAUAUAUAAAUUACAGGACCGGGACAAAUGCUA [JR_Nu13_ExcTryptoB_Sub025] : 366 nM
UGUGUAAUUGUCUGGUAGAUUUAUUUUUUUCGAGGACCGGUACGGCCGCCACUCGUUAUUUACAUGAGGAUCACCCAUGUUAGCU [JR_ExcTryptoA_Sub007] : 22.3 nM

Asked: Please report the measured apparent KD of MS2 coat protein for CACGAAAGAUCGGCCGCCACUAAUCGAUGUGUUCUUUCACAUGAGGAUCACCCAUGUUCUUGCGUUAGGACCGGGAUUGAGCGUG [#01 Exclusion Tryptophan B]
Given back: 50.1 nM

Asked: // fetch apparent KD of MS2 coat protein given entry GAGCACAUGAGGAUCACCCAUGUUGGCACACGAGGACCGGUACGGCCGCCACUCGCGGCGGGAAUAACUUUGCGCAGAUGAUGGG [theeternabot_sameState_MS2_Trp_A_50]
Given back: 37.5 nM

Asked: Query apparent KD of MS2 coat protein for UGUAAUGGGAUCAACCCAUGAGAGUCUGAAGGAGCGAUCGUAAGAUCAGGUAGGUCGCGGGAGACAUGAGGAUCACCCAUGUAUA [#23 Exclusion - Arginine A]
Given back: 46.3 nM

Asked: Answer with the recorded apparent KD of MS2 coat protein for the sequence listed here: UAUAUAUAUCACUAACUGUUCUUGAGGUCUCGAGGACCGGUACGGCCGCCACUCGUACCGCCUCACAUGAGGAUCACCCAUGUCC [XTryp A #1]
Given back: 85.5 nM

Asked: Tell me measured apparent KD of MS2 coat protein for AGAGUCUAGUCGGCCGCCACUCAUGUCCAAAGGACAUGAGGAUCACCCAUGUACCAAUGGUACAUGAGGACCGGGACUGGACUCA [Omei Tryp B SS C v2] please.
Given back: 343 nM

###

Test system: MS2 coat protein
ASSAY_EXPLANATION: apparent KD of MS2 coat protein; designed switch direction (-1 OFF switch, 1 ON switch): -1; higher = weaker reporter binding
CONDITION_INFO: input ligand: none
The entries below come with measured apparent KD of MS2 coat protein values attached.
Provide the reading as a plain figure in nM.

Answered cases to consult:
CCAAGCUUUUUCAUUAACAACAUGAGGAUCACCCAUGUGUAAGCAAUUAUGUUUGGGCUCUUUAGUGCUCGUCUUAU [JR_STOV1_Sub042] (Eterna round: R97, puzzle: Sensor, turn-off variant 1) : 16.7
GACUUCUCUGAGGAUAUUGCAUCAUACGAUUUAUAAGAAGGCAGAACAUGAGGAUCACCCAUGUGGGUUUUUAG [Bingo-Bango-30] (Eterna round: R97, puzzle: Exclusion 6) : 55
AAAUCGUGAGGAUAUCCAAUAUAUGACAUGAGGAUCACCCAUGUUUCCACUCGUACCUCCGGAGAAGGCACAAUAA [Ex5 #75] (Eterna round: R97, puzzle: Exclusion 5) : 27.1

Asked: Recall and state the measured apparent KD of MS2 coat protein for UCCUGACAUGAGGAUCACCCAUGUGAGGAUAUGUGGAUCGAGACAACUCUCGGUCCGUGCAGAAGGCACAGGGC [EX1 A.20] (Eterna round: R97, puzzle: Exclusion 1) .
Given back: 20.3

Asked: Determine its reported apparent KD of MS2 coat protein: CCGUGCACGCUGCGGUCCUACAUGAGGAUCACCCAUGUGGUCCGGUGGCGUGGGUCGCCGGACUUGGCUCGUCUUGU [salish99_S_TOV1_R5_017] (Eterna round: R97, puzzle: Sensor, turn-off variant 1)
Given back: 37.6
